Overview of recorded EC50 for various molecules
# TARGET OR SYSTEM: full-length B-Catenin (Uniprot ID P35222) (Homo sapiens, UniProt P35222)
# Construct: 65 nM full-length B-Catenin (Uniprot ID P35222)
# Sequence (P35222 whole entry): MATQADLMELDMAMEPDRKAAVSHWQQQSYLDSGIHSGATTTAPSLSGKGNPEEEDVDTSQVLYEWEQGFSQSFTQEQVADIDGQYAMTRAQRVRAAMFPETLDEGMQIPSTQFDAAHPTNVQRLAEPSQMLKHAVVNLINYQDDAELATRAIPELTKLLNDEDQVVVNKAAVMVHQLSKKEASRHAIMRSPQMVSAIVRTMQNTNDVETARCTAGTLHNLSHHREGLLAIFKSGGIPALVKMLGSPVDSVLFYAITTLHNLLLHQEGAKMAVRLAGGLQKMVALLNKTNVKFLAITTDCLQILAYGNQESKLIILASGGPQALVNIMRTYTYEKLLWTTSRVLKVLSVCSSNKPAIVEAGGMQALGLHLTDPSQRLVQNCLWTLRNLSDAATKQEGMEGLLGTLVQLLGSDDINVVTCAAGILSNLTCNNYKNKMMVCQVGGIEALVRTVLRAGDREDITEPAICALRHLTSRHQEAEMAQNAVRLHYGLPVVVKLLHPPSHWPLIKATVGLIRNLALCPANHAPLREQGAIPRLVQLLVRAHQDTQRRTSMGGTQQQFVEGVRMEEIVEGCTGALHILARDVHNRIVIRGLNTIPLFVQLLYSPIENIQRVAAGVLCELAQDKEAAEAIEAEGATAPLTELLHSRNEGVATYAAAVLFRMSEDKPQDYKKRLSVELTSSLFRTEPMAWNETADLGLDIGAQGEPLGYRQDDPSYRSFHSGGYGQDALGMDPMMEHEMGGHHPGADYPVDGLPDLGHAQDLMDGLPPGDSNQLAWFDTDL
# METHOD DESCRIPTION: Alphascreen binding assay (beta-catenin / biotin-TCF4 10-53)
Numeric only. Scale: µM

CC(=O)N1CCC[C@]12CC=CCCCC1(CCCC=CCCCCCC[C@@](C)(C(=O)N[C@@H](Cc3ccc4ccccc4c3)C(=O)N[C@@H](Cc3c[nH]c4ccccc34)C(=O)N[C@@H](CCC(N)=O)C(N)=O)NC(=O)[C@H](C(C)C)NC(=O)[C@H](Cc3ccccc3)NC(=O)[C@H](C)NC(=O)[C@H](C)NC(=O)[C@H](CC(=O)O)NC(=O)[C@H](CC(=O)O)NC1=O)NC(=O)[C@H](C)NC(=O)[C@H](CC(=O)O)NC2=O (stereo partly drawn) [I-277]: 6.8

Exercise: Item: CC(=O)N1CCC[C@]12CC=CCCCC1(CCCC=CCCCCCC[C@@](C)(C(=O)N[C@@H](Cc3ccccc3)C(=O)N[C@@H](Cc3c[nH]c4ccccc34)C(=O)N[C@@H](CCC(N)=O)C(N)=O)NC(=O)[C@H](C(C)C)NC(=O)[C@H](Cc3ccccc3)NC(=O)[C@H](C)NC(=O)[C@H](C)NC(=O)[C@H](Cc3ccc(C(F)(F)F)cc3)NC(=O)[C@H](CC(=O)O)NC1=O)NC(=O)[C@H](C)NC(=O)[C@H](CC(=O)O)NC2=O (stereo partly drawn) Test system: full-length B-Catenin (Uniprot ID P35222) (Homo sapiens, UniProt P35222) Read-out: EC50 Value: ?
Solution: 3.97

Exercise: Also CC(=O)N1CCC[C@]12CC=CCCCC1(CCCC=CCCCCCC[C@@](C)(C(=O)N[C@@H](Cc3ccccc3)C(=O)N[C@@H](Cc3c[nH]c4ccc(F)cc34)C(=O)N[C@@H](CCC(N)=O)C(N)=O)NC(=O)[C@H](C(C)C)NC(=O)[C@H](Cc3ccccc3)NC(=O)[C@H](C)NC(=O)[C@H](C)NC(=O)[C@H](CCC(=O)O)NC(=O)[C@H](CC(=O)O)NC1=O)NC(=O)[C@H](C)NC(=O)[C@H](CC(=O)O)NC2=O (stereo partly drawn) , if possible.
Solution: 1.22

----------
# METHOD DESCRIPTION: CHI Log D procedure
# Format: physicochemical
# EXPERIMENTAL PARAMETERS: pH 7.4
RECORDED ENDPOINT: CHI Log D
The reply should be a number, written without any unit.

CC(=O)N1CCC[C@]12CC=CCCCC1(CCCC=CCCCCCC[C@@](C)(C(=O)N[C@@H](Cc3ccccc3)C(=O)N[C@@H](Cc3c[nH]c4ccccc34)C(=O)N[C@@H](CCC(N)=O)C(N)=O)NC(=O)[C@H](C(C)C)NC(=O)[C@H](Cc3cccc(F)c3)NC(=O)[C@H](C)NC(=O)[C@H](C)NC(=O)[C@H](CC(=O)O)NC(=O)[C@H](CC(=O)O)NC1=O)NC(=O)[C@H](C)NC(=O)[C@H](CC(=O)O)NC2=O (stereo partly drawn) [I-264]: 2.011
CC(=O)N1CCC[C@]12CC=CCCCC1(CCCC=CCCCCCC[C@@](C)(C(=O)N[C@@H](Cc3ccccc3)C(=O)N[C@@H](Cc3csc4ccccc34)C(=O)N[C@@H](CCC(N)=O)C(N)=O)NC(=O)[C@H](CC(N)=O)NC(=O)[C@H](Cc3cccs3)NC(=O)[C@H](C)NC(=O)[C@H](C)NC(=O)[C@H](CCC(=O)O)NC(=O)[C@H](CC(=O)O)NC1=O)NC(=O)[C@H](C)NC(=O)[C@H](CC(=O)O)NC2=O (stereo partly drawn) [I-446]: 1.97

Now, please, on to the next molecule.
Exercise: # get_value(readout='CHI Log D', item= CC(=O)N1CCC[C@]12CC=CCCCC1(CCCC=CCCCCCC[C@@](C)(C(=O)N[C@@H](Cc3ccccc3)C(=O)N[C@@H](Cc3c[nH]c4ccccc34)C(=O)N[C@@H](CCC(N)=O)C(N)=O)NC(=O)[C@H](C(C)C)NC(=O)[C@H](Cc3ccccc3)NC(=O)[C@H](C)NC(=O)[C@H](C)NC(=O)[C@H](CCC(=O)O)NC(=O)[C@H](CC(=O)O)NC1=O)NC(=O)[C@H](C)NC(=O)[C@H](CC(N)=O)NC2=O (stereo partly drawn) [I-200] )
Solution: 2.278
